The reported measurements were obtained from patent US6291405A.

assay: Viscosity properties of glycols, Fann 35A viscometer readings; assay type: physicochemical; settings: 120° F, 300 rpm
Everything with Fann 35A viscometer reading lower than 20 is Not satisfied; everything else, including exactly 20, is Satisfied.

Solved cases (4 shown):
| compound | label |
| --- | --- |
| CC(O)COC(C)COC(C)CO (centres unmarked) [Tripropylene Glycol, tripropylene glycol] | Not satisfied |
| CC(CO)CO [2-Methyl Propyl 1,3-Diol, reference compound] | Satisfied |
| OCCOCCOCCO [Triethylene Glycol, triethylene glycol] | Not satisfied |
| OCC(O)CO [Glycerine, reference compound] | Satisfied |

Turning now to a further compound:
Evaluate CC(O)CO (centres unmarked) [Propylene Glycol, propylene glycol] : Fann 35A viscometer reading at minimum 20?
Not satisfied

====

assay: Viscosity properties of glycols, Fann 35A viscometer readings; format: physicochemical; conditions: 120° F, 600 rpm
Threshold rule: Fann 35A viscometer reading greater than or equal to 30 is Met; below that, Not met.

Below, 4 molecules whose answers are already recorded.
| molecule | label |
| --- | --- |
| CC(O)CO (centres unmarked) [Propylene Glycol, propylene glycol] | Not met |
| CC(CO)CO [2-Methyl Propyl 1,3-Diol, reference compound] | Met |
| OCC(O)CO [Glycerine, reference compound] | Met |
| CC(O)COC(C)COC(C)CO (centres unmarked) [Tripropylene Glycol, tripropylene glycol] | Met |

Could you now look at the following molecule, please?
Determine whether measured Fann 35A viscometer reading meets or exceeds 30 for OCCOCCOCCO [Triethylene Glycol, triethylene glycol]
Met

====

Collected Fann 35A viscometer reading values appear next to each entry.
assay: Viscosity properties of glycols, Fann 35A viscometer readings; format: physicochemical; settings: Room Temperature, 300 rpm
Simply state the number, no unit and no words.

Field: example entries. Status: answers known.
| compound | Fann 35A viscometer reading |
| --- | --- |
| CC(CO)CO [2-Methyl Propyl 1,3-Diol, reference compound] | 216 |
| OCCOCCOCCO | 42 |
| CC(O)COC(C)COC(C)CO (centres unmarked) | 59 |

As a next step, examine the compound that follows.
So, CC(O)CO (centres unmarked) ? Its Fann 35A viscometer reading was 47

====

experiment: Viscosity properties of glycols, Fann 35A viscometer readings; type: physicochemical; settings: Room Temperature, 600 rpm
The reader will find reported Fann 35A viscometer reading values listed item by item below.
Reply with the value as a number alone.

Consider the reported Fann 35A viscometer reading for these compounds:
| compound | Fann 35A viscometer reading |
| --- | --- |
| OCCOCCOCCO | 83 |
| CC(O)COC(C)COC(C)CO (centres unmarked) | 116 |

Now for the compound whose Fann 35A viscometer reading we want.
The reported Fann 35A viscometer reading of the compound CC(O)CO (centres unmarked) was 92
